TGI reference
Test system: SK-MEL-28 melanoma
measurement-protocol: NCI tumour cell line growth inhibition, 48 h

# compound, observed-result
data = [
    ("O=c1onc2c3ccccc3ncn12", "> 100 µM"),
    ("Cc1n[nH]c(=O)n1/N=C/c1ccc([N+](=O)[O-])o1", "28.3 µM"),
    ("COc1ccc(OC)c(C2SCC(=O)N2NC(=O)C(O)c2ccccc2)c1 (stereo not drawn)", "> 100 µM"),
    ("N/N=C1\\CC(=O)NC(=O)N1", "> 100 µM"),
    ("COC(=O)CC1NC(=O)C1C1(C)OCCO1 (stereo not drawn)", "> 100 µM"),
    ("O=C(N/N=C/c1cc(Cl)cc(Cl)c1O)c1ccccc1O", "25.2 µM"),
    ("CC1=NN(C(=O)CSc2nc3ccc(I)cc3c(=O)n2Cc2ccccc2)C(=O)C1", "> 100 µM"),
    ("COc1cc(C(c2ccc3c(c2)OCO3)N2C(=O)CCC2C(=O)O)cc(OC)c1OC (stereo not drawn)", "> 100 µM"),
    ("COc1ccc(-n2cnc3c(NC(CCSC)C(=O)O)ncnc32)cc1 (stereo not drawn)", "> 100 µM"),
    ("CN(C)CC1CCCC1=O (stereo not drawn)", "6.48 µM"),
]

[in] Would you mind telling me what TGI value was observed for COc1ccc(-c2cc(=O)c3c(OC)c(OC)c(OC)c(OC)c3o2)cc1 ?
[out] > 100 µM

[in] Would you mind telling me what TGI value was observed for COc1ccc(/C=N/NC(=O)Cn2c(-c3ccc(S(C)(=O)=O)cc3)nc3cc(Cl)ccc32)cc1 ?
[out] > 50 µM

[in] Would you mind telling me what TGI value was observed for Nc1nc(Cl)c(N)c(NCC2(CO)CC(CCCc3ccccc3)C2)n1 (stereo not drawn) ?
[out] > 100 µM

[in] Would you mind telling me what TGI value was observed for Cn1cc(-c2nonc2-c2cn(C)c3ccccc23)c2ccccc21 ?
[out] > 100 µM

[in] Would you mind telling me what TGI value was observed for O=C(Nc1cccc(Nc2ncc(Br)c(NCCc3cnc[nH]3)n2)c1)N1CCCC1 ?
[out] 28.6 µM

[in] Would you mind telling me what TGI value was observed for CC1(C)C2CCC13CS(=O)(=O)N1O[C@]13C(=O)O2 (stereo partly drawn) ?
[out] > 100 µM

[in] Would you mind telling me what TGI value was observed for CC(C)=C/C=C1/CS(=O)(=O)C=C1C ?
[out] > 100 µM

[in] Would you mind telling me what TGI value was observed for CCOP(=O)(OCC)C(C)(CC)NC (stereo not drawn) ?
[out] > 100 µM

[in] Would you mind telling me what TGI value was observed for O=C(NC1CCCC1=O)c1ccccc1 (stereo not drawn) ?
[out] > 100 µM

[in] Would you mind telling me what TGI value was observed for Cc1cc2c(c(C(=O)O)c1C)-c1cccc(F)c1C2=O ?
[out] > 100 µM

[in] Would you mind telling me what TGI value was observed for CNc1ccc(N)cc1C(=O)N1CCC[C@H]1CO ?
[out] > 100 µM

[in] Would you mind telling me what TGI value was observed for Cc1nc(-c2ccc(N=Cc3ccc(N(CCOS(C)(=O)=O)CCOS(C)(=O)=O)cc3C)cc2)cs1 ?
[out] > 100 µM

[in] Would you mind telling me what TGI value was observed for Cc1ccc(CC(C)N)cc1 (stereo not drawn) ?
[out] > 100 µM

----------
Test system: MDA-MB-435
measurement-protocol: NCI tumour cell line growth inhibition, 48 h
TGI reference

Solved cases below.
# compound, TGI
records = [
    ("N#C/C(=C\\c1c[nH]c2ccccc12)C(=O)c1ccc(O)c(O)c1", "> 100 µM"),
    ("CSC(=S)N/N=C(\\C)c1cccc(C)n1", "> 35.7 µM"),
    ("CCN(c1cccc(NC(=S)Nc2ccccc2N(CC)c2cc(-c3ccccc3)no2)c1)c1cc(-c2ccccc2)no1", "> 100 µM"),
]

[in] Would you mind telling me what TGI value was observed for O=c1[nH]cnc2c(C3NC(CO)C(O)C3O)c[nH]c12 (stereo unspecified) ?
[out] > 100 µM

[in] Would you mind telling me what TGI value was observed for COc1ccc(CSc2ccccc2Cn2cccc2)cc1OC ?
[out] > 100 µM

[in] Would you mind telling me what TGI value was observed for O=c1onc2c3ccccc3ncn12 ?
[out] > 100 µM

----------
Tested on: SF-268 CNS
measurement-protocol: NCI tumour cell line growth inhibition, 48 h
TGI reference

# compound, TGI
records = [
    ("C[CH2][Pb]([CH2]C)([CH2]C)[O]C(=O)c1ccc2ccccc2n1", "> 10 µM"),
    ("CN(C)CC1CCCC1=O (stereo not drawn)", "13.6 µM"),
]

Next:
[in] Would you mind telling me what TGI value was observed for CC(C)[C@@H]1ON1C(C)c1ccccc1 (stereo partly drawn) ?
[out] > 100 µM
